The origin of these recorded values is ChEMBL document CHEMBL2311390.

Recorded ED50 by entry
System: Rattus norvegicus
assay.name: Antiarrhythmic activity in iv dosed Wistar rat adrenaline-induced arrhythmia model assessed as reduction of heart-rhythm disturbance administered 15 mins adrenaline-challenge
Assay type: functional
protocol.conditions: 0.25 h
Dear colleague, please return just the value in mg/kg, with no unit written.

Worked examples follow.
> print(dat)
                                   compound  recorded.result
1  COc1ccccc1N1CCN(CCCOc2cccc3c(=O)c4ccccc4oc23)CC1.Cl             0.69
2  COc1ccccc1OCCNCC(O)COc1cccc2[nH]c3ccccc3c12 (centres undefined) [CARVEDILOL]             0.25
3  COc1ccccc1N1CCN(CC(O)COc2cccc3c(=O)c4ccccc4oc23)CC1.Cl (racemic)             0.88

Then this compound:
Task: Observed ED50 on Rattus norvegicus for COc1ccccc1N1CCN(CC(COc2cccc3c(=O)c4ccccc4oc23)OC(C)=O)CC1.Cl (racemic) , please.
Result: 0.87
